Sourced from paper PMC10952047

STUDY_SYSTEM: CKR-1 (Caenorhabditis elegans)
Sequence (P91487 1-421): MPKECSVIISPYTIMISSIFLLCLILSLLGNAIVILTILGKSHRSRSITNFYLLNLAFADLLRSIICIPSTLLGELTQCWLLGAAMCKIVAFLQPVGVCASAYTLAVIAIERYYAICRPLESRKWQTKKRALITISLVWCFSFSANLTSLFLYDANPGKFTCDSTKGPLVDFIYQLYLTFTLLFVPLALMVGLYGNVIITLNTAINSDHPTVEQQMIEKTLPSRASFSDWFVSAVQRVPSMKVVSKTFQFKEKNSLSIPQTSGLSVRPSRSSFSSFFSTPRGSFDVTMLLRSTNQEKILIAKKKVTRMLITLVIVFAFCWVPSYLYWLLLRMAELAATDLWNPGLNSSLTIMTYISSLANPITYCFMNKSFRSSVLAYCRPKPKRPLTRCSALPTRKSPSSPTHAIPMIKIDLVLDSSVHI
Assay type: cell-based, C. elegans
No end group written: not given here.

[
  {
    "SUBSTANCE": "DYRPLQF-NH2 [NLP-12a]",
    "EC50 (nM)": 26.5
  }
]
